- Test system: S. aureus USA300
- Format: cell-based, Staphylococcus aureus
- SETUP CONDITIONS: USA300, 20 h
Peptide text beside a SMILES is read from it.
Would you kindly list MIC S. aureus USA300 for each of these molecules?

Examples with their reported MIC S. aureus USA300 follow.
CC[C@H](C)[C@H](NC(=O)[C@H](CCCNC(=N)N)NC(=O)[C@H](CO)NC(=O)[C@H](CC(C)C)NC(=O)[C@H](Cc1c[nH]c2ccccc12)NC(=O)[C@H](Cc1c[nH]c2ccccc12)NC(=O)[C@@H](N)Cc1c[nH]c2ccccc12)C(=O)N[C@@H](Cc1c[nH]c2ccccc12)C(=O)O [TetraF2W] (H-WWWLSRIW-OH)
3.1 to 6.2 µM
CC[C@H](C)[C@H](NC(=O)[C@H](CCCNC(=N)N)NC(=O)[C@H](CCCCN)NC(=O)[C@H](CC(C)C)NC(=O)[C@H](Cc1c[nH]c2ccccc12)NC(=O)[C@H](Cc1c[nH]c2ccccc12)NC(=O)[C@@H](N)Cc1c[nH]c2ccccc12)C(=O)N[C@@H](Cc1c[nH]c2ccccc12)C(=O)O [TetraF2W-KR] (H-WWWLKRIW-OH)
3.1 µM

Here is the next item to consider.
Any idea what MIC S. aureus USA300 was measured for CC[C@H](C)[C@H](NC(=O)[C@H](CCCCN)NC(=O)[C@H](CCCCN)NC(=O)[C@H](CC(C)C)NC(=O)[C@H](Cc1c[nH]c2ccccc12)NC(=O)[C@H](Cc1c[nH]c2ccccc12)NC(=O)[C@@H](N)Cc1c[nH]c2ccccc12)C(=O)N[C@@H](Cc1c[nH]c2ccccc12)C(=O)O [TetraF2W-KK] (H-WWWLKKIW-OH) ?
3.1 to 6.2 µM
